assay.details: in vitro
condition.description: human
measured.property: recovery

Query: recovery; subject: CNC(C)C1CCC(N)C(OC2C(N)CC(N)C(OC3OCC(C)(O)C(NC)C3O)C2O)O1 (stereo not shown) [Gentamicin, gentamicin]
~100%

* * *

assay.details: in vitro
measured.property: fraction unbound
Simply state the number, no unit and no words.

Recorded fraction unbound for O=C(O)C(F)(F)C(F)(F)C(F)(F)C(F)(F)C(F)(F)C(F)(F)C(F)(F)F [PFOA, perfluorooctanoic acid] , please?
0.986

* * *

assay.details: Rapid equilibrium dialysis
measured.property: fraction unbound
// response body must contain only the number

Fill in: fraction unbound of CN1CC(=O)NC1=N [Creatinine, creatinine] is ___
0.934
